target: eIF4A1 Phe163His (Homo sapiens, UniProt P60842 1-406, F163H); assay: fluorescence polarization; 1 mM AMP-PNP, DMSO; 20 mM HEPES-NaOH pH 7.5, 150 mM NaCl, 1 mM MgCl2, 1 mM DTT, 5% glycerol, 1% DMSO, 10 nM FAM-RNA, 0-25 uM protein (source data up to 50), 1 mM AMP-PNP or 1 mM ADP + 1 mM Na2HPO4, room temperature 30 min; Hill fit, n = 3; details: protein: recombinant; tags: His; single strand
Sequence (P60842 whole entry F163H): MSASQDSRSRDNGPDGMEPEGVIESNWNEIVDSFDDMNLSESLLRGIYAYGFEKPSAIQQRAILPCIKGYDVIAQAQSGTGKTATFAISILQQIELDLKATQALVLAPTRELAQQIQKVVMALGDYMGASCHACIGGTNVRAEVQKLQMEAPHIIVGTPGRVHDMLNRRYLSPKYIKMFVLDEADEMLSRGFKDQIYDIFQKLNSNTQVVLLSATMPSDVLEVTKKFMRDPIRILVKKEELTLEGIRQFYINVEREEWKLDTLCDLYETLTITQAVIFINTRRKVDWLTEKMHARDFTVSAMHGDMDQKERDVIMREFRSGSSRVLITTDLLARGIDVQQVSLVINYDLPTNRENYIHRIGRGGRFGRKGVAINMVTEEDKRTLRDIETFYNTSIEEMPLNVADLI
quantity name: Kd
Quick note: unit goes after the number.

Quick one: give measured Kd for AGAGAGAGAGAGAGAGAGAG (ssRNA) [[AG]10 polypurine RNA]
16 µM
